protocol.text: Absorption spectrum of toluene solution (maximum absorption, gram absorption coefficient)
Type: physicochemical
condition.set: at maximum absorption
endpoint.label: gram absorption coefficient (mL/g/cm)
Write the value in mL/g/cm as a bare number.

Report gram absorption coefficient for Fc1ccccc1OCCCCc1ccc(CCCCOc2ccccc2F)c2c1-c1nc-2nc2[n-]c(nc3nc(nc4[n-]c(n1)c1c(CCCCOc5ccccc5F)ccc(CCCCOc5ccccc5F)c41)-c1c(CCCCOc4ccccc4F)ccc(CCCCOc4ccccc4F)c1-3)c1c(CCCCOc3ccccc3F)ccc(CCCCOc3ccccc3F)c21.[O]=[V+2] [Specific Example (1)-43] please.
78900

Report gram absorption coefficient for CCOCCCCc1ccc(CCCCOCC)c2c1-c1nc-2nc2[n-]c(nc3nc(nc4[n-]c(n1)c1c(CCCCOCC)ccc(CCCCOCC)c41)-c1c(CCCCOCC)ccc(CCCCOCC)c1-3)c1c(CCCCOCC)ccc(CCCCOCC)c21.[O]=[V+2] [Specific Example (1)-33] please.
119000

====

Provide the reported ΔE (%) Heat resistance of each item.
protocol.text: Heat resistance test of heat ray shielding film
Format: physicochemical
condition.set: 200 hours at 100° C., absorbance integrated 400 to 900 nm
Write the value in % as a bare number.

Report ΔE (%) Heat resistance for [O]=[V+2].c1ccc(OCCOCCCCc2ccc(CCCCOCCOc3ccccc3)c3c2-c2nc-3nc3[n-]c(nc4nc(nc5[n-]c(n2)c2c(CCCCOCCOc6ccccc6)ccc(CCCCOCCOc6ccccc6)c52)-c2c(CCCCOCCOc5ccccc5)ccc(CCCCOCCOc5ccccc5)c2-4)c2c(CCCCOCCOc4ccccc4)ccc(CCCCOCCOc4ccccc4)c32)cc1 [Specific Example (1)-38] please.
3

Report ΔE (%) Heat resistance for COCc1ccc(COC)c2c1-c1nc-2nc2[n-]c(nc3nc(nc4[n-]c(n1)c1c(COC)ccc(COC)c41)-c1c(COC)ccc(COC)c1-3)c1c(COC)ccc(COC)c21.[O]=[V+2] [Comparative Example Compound (a), reference compound] please.
31

Report ΔE (%) Heat resistance for COc1cccc(OCCCCc2ccc(CCCCOc3cccc(OC)c3)c3c2-c2nc-3nc3[n-]c(nc4nc(nc5[n-]c(n2)c2c(CCCCOc6cccc(OC)c6)ccc(CCCCOc6cccc(OC)c6)c52)-c2c(CCCCOc5cccc(OC)c5)ccc(CCCCOc5cccc(OC)c5)c2-4)c2c(CCCCOc4cccc(OC)c4)ccc(CCCCOc4cccc(OC)c4)c32)c1.[O]=[V+2] [Specific Example (1)-39] please.
3

Report ΔE (%) Heat resistance for COc1cccc(OCCCCc2ccc(CCCCOc3cccc(OC)c3)c3c2-c2nc-3nc3[n-]c(nc4nc(nc5[n-]c(n2)c2c(CCCCOc6cccc(OC)c6)ccc(CCCCOc6cccc(OC)c6)c52)-c2c(CCCCOc5cccc(OC)c5)ccc(CCCCOc5cccc(OC)c5)c2-4)c2c(CCCCOc4cccc(OC)c4)ccc(CCCCOc4cccc(OC)c4)c32)c1.[Cu+2] [Specific Example (1)-40] please.
3

Report ΔE (%) Heat resistance for COCCCCc1ccc(CCCCOC)c2c1-c1nc-2nc2[n-]c(nc3nc(nc4[n-]c(n1)c1c(CCCCOC)ccc(CCCCOC)c41)-c1c(CCCCOC)ccc(CCCCOC)c1-3)c1c(CCCCOC)ccc(CCCCOC)c21.[O]=[V+2] [Specific Example (1)-30] please.
6

Report ΔE (%) Heat resistance for Fc1ccccc1OCCCCc1ccc(CCCCOc2ccccc2F)c2c1-c1nc-2nc2[n-]c(nc3nc(nc4[n-]c(n1)c1c(CCCCOc5ccccc5F)ccc(CCCCOc5ccccc5F)c41)-c1c(CCCCOc4ccccc4F)ccc(CCCCOc4ccccc4F)c1-3)c1c(CCCCOc3ccccc3F)ccc(CCCCOc3ccccc3F)c21.[O]=[V+2] [Specific Example (1)-43] please.
3

Report ΔE (%) Heat resistance for COc1cccc(OC)c1OCCCCc1ccc(CCCCOc2c(OC)cccc2OC)c2c1-c1nc-2nc2[n-]c(nc3nc(nc4[n-]c(n1)c1c(CCCCOc5c(OC)cccc5OC)ccc(CCCCOc5c(OC)cccc5OC)c41)-c1c(CCCCOc4c(OC)cccc4OC)ccc(CCCCOc4c(OC)cccc4OC)c1-3)c1c(CCCCOc3c(OC)cccc3OC)ccc(CCCCOc3c(OC)cccc3OC)c21.[O]=[V+2] [Specific Example (1)-44] please.
4

Report ΔE (%) Heat resistance for CC(C)(C)c1ccc(OCCCCc2ccc(CCCCOc3ccc(C(C)(C)C)cc3)c3c2-c2nc-3nc3[n-]c(nc4nc(nc5[n-]c(n2)c2c(CCCCOc6ccc(C(C)(C)C)cc6)ccc(CCCCOc6ccc(C(C)(C)C)cc6)c52)-c2c(CCCCOc5ccc(C(C)(C)C)cc5)ccc(CCCCOc5ccc(C(C)(C)C)cc5)c2-4)c2c(CCCCOc4ccc(C(C)(C)C)cc4)ccc(CCCCOc4ccc(C(C)(C)C)cc4)c32)cc1.[O]=[V+2] [Specific Example (1)-42] please.
4

====

protocol.text: Light fastness test of laminated glass
Type: physicochemical
condition.set: xenon light 200 hours at 550 W/h, absorbance integrated 400 to 900 nm
endpoint.label: ΔE (%) Light fastness
Write the value in % as a bare number.

Report ΔE (%) Light fastness for COc1cccc(OC)c1OCCCCc1ccc(CCCCOc2c(OC)cccc2OC)c2c1-c1nc-2nc2[n-]c(nc3nc(nc4[n-]c(n1)c1c(CCCCOc5c(OC)cccc5OC)ccc(CCCCOc5c(OC)cccc5OC)c41)-c1c(CCCCOc4c(OC)cccc4OC)ccc(CCCCOc4c(OC)cccc4OC)c1-3)c1c(CCCCOc3c(OC)cccc3OC)ccc(CCCCOc3c(OC)cccc3OC)c21.[Cu+2] [Specific Example (1)-45] please.
3

Report ΔE (%) Light fastness for COCCCCc1ccc(CCCCOC)c2c1-c1nc-2nc2[n-]c(nc3nc(nc4[n-]c(n1)c1c(CCCCOC)ccc(CCCCOC)c41)-c1c(CCCCOC)ccc(CCCCOC)c1-3)c1c(CCCCOC)ccc(CCCCOC)c21.[Cu+2] [Specific Example (1)-31] please.
3

Report ΔE (%) Light fastness for COCc1ccc(COC)c2c1-c1nc-2nc2[n-]c(nc3nc(nc4[n-]c(n1)c1c(COC)ccc(COC)c41)-c1c(COC)ccc(COC)c1-3)c1c(COC)ccc(COC)c21.[O]=[V+2] [Comparative Example Compound (a), reference compound] please.
33

Report ΔE (%) Light fastness for [O]=[V+2].c1ccc(OCCCCc2ccc(CCCCOc3ccccc3)c3c2-c2nc-3nc3[n-]c(nc4nc(nc5[n-]c(n2)c2c(CCCCOc6ccccc6)ccc(CCCCOc6ccccc6)c52)-c2c(CCCCOc5ccccc5)ccc(CCCCOc5ccccc5)c2-4)c2c(CCCCOc4ccccc4)ccc(CCCCOc4ccccc4)c32)cc1 [Specific Example (1)-37] please.
3

Report ΔE (%) Light fastness for CCOCCCCc1ccc(CCCCOCC)c2c1-c1nc-2nc2[n-]c(nc3nc(nc4[n-]c(n1)c1c(CCCCOCC)ccc(CCCCOCC)c41)-c1c(CCCCOCC)ccc(CCCCOCC)c1-3)c1c(CCCCOCC)ccc(CCCCOCC)c21.[O]=[V+2] [Specific Example (1)-33] please.
2

Report ΔE (%) Light fastness for COc1cccc(OCCCCc2ccc(CCCCOc3cccc(OC)c3)c3c2-c2nc-3nc3[n-]c(nc4nc(nc5[n-]c(n2)c2c(CCCCOc6cccc(OC)c6)ccc(CCCCOc6cccc(OC)c6)c52)-c2c(CCCCOc5cccc(OC)c5)ccc(CCCCOc5cccc(OC)c5)c2-4)c2c(CCCCOc4cccc(OC)c4)ccc(CCCCOc4cccc(OC)c4)c32)c1.[Cu+2] [Specific Example (1)-40] please.
2

Report ΔE (%) Light fastness for Fc1ccccc1OCCCCc1ccc(CCCCOc2ccccc2F)c2c1-c1nc-2nc2[n-]c(nc3nc(nc4[n-]c(n1)c1c(CCCCOc5ccccc5F)ccc(CCCCOc5ccccc5F)c41)-c1c(CCCCOc4ccccc4F)ccc(CCCCOc4ccccc4F)c1-3)c1c(CCCCOc3ccccc3F)ccc(CCCCOc3ccccc3F)c21.[O]=[V+2] [Specific Example (1)-43] please.
3

====

protocol.text: Tts of laminated glass sample
Format: physicochemical
condition.set: 0.76 mm PVB interlayer with 0.013 g compound per 100 g resin, JIS R3106
Method: The phthalocyanine-based compound (Specific Example (1)-30) produced in Example 1 (0.013 g) was dissolved in 40 g of triethylene glycol-di-2-ethylhexanoate as an organic ester plasticizer. […] By using U-3500 type recording spectrophotometer produced by Hitachi, Ltd. as a measurement instrument, Tts of the laminated glass samples was measured based on JIS R3106 “Testing method for transmittance, reflectance, emissivity, and solar heat gain coefficient of flat glasses”.
endpoint.label: Tts (%)
Write the value in % as a bare number.

Report Tts for `CCOCCCCc1ccc(CCCCOCC)c2c1-c1nc-2nc2[n-]c(nc3nc(nc4[n-]c(n1)c1c(CCCCOCC)ccc(CCCCOCC)c41)-c1c(CCCCOCC)ccc(CCCCOCC)c1-3)c1c(CCCCOCC)ccc(CCCCOCC)c21.[O]=[V+2]` please.
51.5

Report Tts for `COCCCCc1ccc(CCCCOC)c2c1-c1nc-2nc2[n-]c(nc3nc(nc4[n-]c(n1)c1c(CCCCOC)ccc(CCCCOC)c41)-c1c(CCCCOC)ccc(CCCCOC)c1-3)c1c(CCCCOC)ccc(CCCCOC)c21.[O]=[V+2]` please.
53.2

Report Tts for `COc1cccc(OC)c1OCCCCc1ccc(CCCCOc2c(OC)cccc2OC)c2c1-c1nc-2nc2[n-]c(nc3nc(nc4[n-]c(n1)c1c(CCCCOc5c(OC)cccc5OC)ccc(CCCCOc5c(OC)cccc5OC)c41)-c1c(CCCCOc4c(OC)cccc4OC)ccc(CCCCOc4c(OC)cccc4OC)c1-3)c1c(CCCCOc3c(OC)cccc3OC)ccc(CCCCOc3c(OC)cccc3OC)c21.[Cu+2]` please.
52.5

Report Tts for `[O]=[V+2].c1ccc(OCCCCc2ccc(CCCCOc3ccccc3)c3c2-c2nc-3nc3[n-]c(nc4nc(nc5[n-]c(n2)c2c(CCCCOc6ccccc6)ccc(CCCCOc6ccccc6)c52)-c2c(CCCCOc5ccccc5)ccc(CCCCOc5ccccc5)c2-4)c2c(CCCCOc4ccccc4)ccc(CCCCOc4ccccc4)c32)cc1` please.
52.6

Report Tts for `[O]=[V+2].c1ccc(OCCOCCCCc2ccc(CCCCOCCOc3ccccc3)c3c2-c2nc-3nc3[n-]c(nc4nc(nc5[n-]c(n2)c2c(CCCCOCCOc6ccccc6)ccc(CCCCOCCOc6ccccc6)c52)-c2c(CCCCOCCOc5ccccc5)ccc(CCCCOCCOc5ccccc5)c2-4)c2c(CCCCOCCOc4ccccc4)ccc(CCCCOCCOc4ccccc4)c32)cc1` please.
51.7

Report Tts for `CC(C)(C)c1ccc(OCCCCc2ccc(CCCCOc3ccc(C(C)(C)C)cc3)c3c2-c2nc-3nc3[n-]c(nc4nc(nc5[n-]c(n2)c2c(CCCCOc6ccc(C(C)(C)C)cc6)ccc(CCCCOc6ccc(C(C)(C)C)cc6)c52)-c2c(CCCCOc5ccc(C(C)(C)C)cc5)ccc(CCCCOc5ccc(C(C)(C)C)cc5)c2-4)c2c(CCCCOc4ccc(C(C)(C)C)cc4)ccc(CCCCOc4ccc(C(C)(C)C)cc4)c32)cc1.[O]=[V+2]` please.
52.3

Report Tts for COCc1ccc(COC)c2c1-c1nc-2nc2[n-]c(nc3nc(nc4[n-]c(n1)c1c(COC)ccc(COC)c41)-c1c(COC)ccc(COC)c1-3)c1c(COC)ccc(COC)c21.[O]=[V+2] [Comparative Example Compound (a), reference compound] please.
53.6

Report Tts for `COc1cccc(OCCCCc2ccc(CCCCOc3cccc(OC)c3)c3c2-c2nc-3nc3[n-]c(nc4nc(nc5[n-]c(n2)c2c(CCCCOc6cccc(OC)c6)ccc(CCCCOc6cccc(OC)c6)c52)-c2c(CCCCOc5cccc(OC)c5)ccc(CCCCOc5cccc(OC)c5)c2-4)c2c(CCCCOc4cccc(OC)c4)ccc(CCCCOc4cccc(OC)c4)c32)c1.[O]=[V+2]` please.
52.7

Report Tts for `Fc1ccccc1OCCCCc1ccc(CCCCOc2ccccc2F)c2c1-c1nc-2nc2[n-]c(nc3nc(nc4[n-]c(n1)c1c(CCCCOc5ccccc5F)ccc(CCCCOc5ccccc5F)c41)-c1c(CCCCOc4ccccc4F)ccc(CCCCOc4ccccc4F)c1-3)c1c(CCCCOc3ccccc3F)ccc(CCCCOc3ccccc3F)c21.[O]=[V+2]` please.
52

Report Tts for `COCCCCc1ccc(CCCCOC)c2c1-c1nc-2nc2[n-]c(nc3nc(nc4[n-]c(n1)c1c(CCCCOC)ccc(CCCCOC)c41)-c1c(CCCCOC)ccc(CCCCOC)c1-3)c1c(CCCCOC)ccc(CCCCOC)c21.[Cu+2]` please.
51.5
